Assign GI50 to each entry below.
# Test system: Malme-3M
# ASSAY EXPLANATION: NCI tumour cell line growth inhibition, 48 h
Calls of active or inactive are those of the source. Cut-off read from the data, not from the text of the source: active = GI50 up to about 1.1 µM and inactive = higher.

Qu. Please look up its GI50: "COc1cc(OC)c(/C=N/N=C(\N)NO)c(OC)c1"
Ans. > 100 µM (inactive)

Qu. Follow-up entry: "O=C(Nc1nc(C23CC4CC(CC(C4)C2)C3)cs1)c1cc2cc([N+](=O)[O-])ccc2oc1=O"
Ans. 46.2 µM (inactive)

Qu. Now consider CSc1ccc(OCC2OC2O)cc1 (stereo unspecified) and answer again.
Ans. 98.2 µM (inactive)

Qu. Follow-up entry: O=C1NP23(OCCO2)Oc2ccccc2C3(C(F)(F)F)O1 (stereo unspecified)
Ans. > 100 µM (inactive)

Qu. Further, for "Nc1nc(=O)c(/N=N/c2ccc([As](=O)(O)O)cc2)c(N)[nH]1" ?
Ans. > 100 µM (inactive)

Qu. Check "CCOC(=O)C1(Cc2ccc3c(c2)CCC3)Cc2cc3c(cc2C1)CCC3" too.
Ans. 27.2 µM (inactive)

====

# Test system: NCI-H23
# ASSAY EXPLANATION: NCI tumour cell line growth inhibition, 48 h
The source made the active and inactive calls. Cut-off read from the data, not from the text of the source: active = GI50 up to about 1.1 µM and inactive = higher.
READOUT LABEL: GI50

Qu. Which GI50 value belongs to Cc1cc(C)n(C2OC(CO)C(O)C(O)C2O)c(=S)c1C#N (stereo not given) ?
Ans. > 100 µM (inactive)

Qu. Then what about the compound Cc1cccc2c1Oc1cc(Cl)ccc1C2NC(=O)CN(C)C (stereo not given) ?
Ans. 92 µM (inactive)

Qu. Can you check "COP(=O)(Cc1ccccc1)Cc1ccccc1" next?
Ans. > 100 µM (inactive)

Qu. Same again, this time with CCN1C[C@]2(C)CC[C@H](OC)C34C5C[C@@H]6[C@@H](OC)C[C@@](OC)(C5[C@H]6OCc5ccccc5)C(C13)[C@H](OC(C)=O)[C@@H]42 (stereo not given in full)
Ans. > 100 µM (inactive)

Qu. What about this compound? "CN1CCN(C(=S)N(C(=O)c2cccs2)c2ccccc2)CC1"
Ans. > 100 µM (inactive)

Qu. Query "C/N=C(\SC)N(C)c1nc(=[N+](C)C)ss1.[O-][Cl+3]([O-])([O-])[O-]" next
Ans. > 100 µM (inactive)

Qu. Repeat with "COc1cc(OC)cc(-c2cc(=O)c3c(OC)c(OC)c(OC)c(OC)c3o2)c1"
Ans. 52.1 µM (inactive)

Qu. Another compound to look at: "Cn1c(=O)n2c(-c3ccccc3)c(-c3ccccc3)n2c1=O"
Ans. > 100 µM (inactive)

Qu. Please give the result for "CC1=C(C(=O)Nc2ccccc2)C2(CCCCC2)C(C#N)=C(SCC(=O)Nc2ccc(Br)cc2)N1" too.
Ans. 4.1 µM (inactive)

Qu. What about NC(=O)c1csc(C2OC(CO)C(O)C2O)n1 (stereo not given) ?
Ans. 60.1 µM (inactive)

====

# System: SF-295
# ASSAY EXPLANATION: NCI tumour cell line growth inhibition, 48 h
Active and inactive are the calls of the source. No stated cut-off is given here; in the data, active = GI50 up to about 1.1 µM and inactive = higher.
// allowed return values: active, inactive

Qu. Kindly provide the recorded test outcome for the following molecule: "COC(=O)C1=C(C(=O)OC)SC2(S1)C(C(=O)OC)=C(C(=O)OC)Sc1c2ss/c1=N\c1ccc(Cl)cc1"
Ans. inactive

Qu. Try the molecule Cc1cc(C)c(N[S+]([O-])c2cccc(C(F)(F)F)c2)c(C)c1 (centres undefined)
Ans. inactive

Qu. Could you do the same for "O=[N+]([O-])c1cccc(-c2nc(-c3ccccc3)c(-c3ccccc3)[nH]2)c1" , please?
Ans. inactive

Qu. Query "CC(C)(C)OC(=O)NCCC(N)=S" next
Ans. inactive

Qu. Same read-out for CCN(CCO)CC1COc2ccccc2O1 (centres undefined) ?
Ans. inactive

Qu. Now consider OCC1OC(c2nc(C3=NCCCN3)cs2)C(O)C1O (centres undefined) and answer again.
Ans. inactive

Qu. Note, next up: CO[C@@H]1C[C@H](OC(N)=O)[C@@H]2C=C[C@@H]3/C=C(C)/C=C/[C@@H](C)[C@H](/C(C)=C/[C@@H](C)NC(C)=O)OC(=O)/C=C/C=C(C)\C=C\[C@]3(C)[C@@H]2C1 [SUPERSTOLIDE B]
Ans. active

Qu. Another molecule to check: "Clc1ccc(SCCSCCCCCCCCCCSCCSc2ccc(Cl)cc2)cc1"
Ans. inactive

Qu. Another molecule: "Cc1[nH]c2ccccc2c1CC/C(=N\Nc1ccccc1)c1ccccc1"
Ans. inactive

====

# System: SNB-78
# ASSAY EXPLANATION: NCI tumour cell line growth inhibition, 48 h
Activity calls are given as the source filed them. No stated cut-off is given here; in the data, active = GI50 up to about 1.1 µM and inactive = higher.
READOUT LABEL: GI50

Qu. Give SNB-78 GI50 for "Cc1nc(Nc2ccccc2)sc1C(=O)NNC(N)=O"
Ans. > 100 µM (inactive)

Qu. Moving on to C=CCCC12CCCC(=O)C1Sc1ccc3ccccc3c12 (centres undefined)
Ans. 20.8 µM (inactive)

Qu. Please do the same for "C/C=C(\C)c1cc(O)c(C)c2c1Oc1cc(O)c(Cl)c(C)c1C(=O)O2" as well.
Ans. 29.1 µM (inactive)

Qu. And what about the molecule O=C1c2ccccc2CC1C1(O)C(=O)Nc2c(Cl)cc(Cl)cc21 (centres undefined) ?
Ans. > 100 µM (inactive)

====

# Test system: 786-0
# ASSAY EXPLANATION: NCI tumour cell line growth inhibition, 48 h
Calls of active or inactive are those of the source. Rule as the data show it: active = GI50 up to about 1.1 µM and inactive = higher.
I would appreciate it if you answered using one of these outcomes: t = active, f = inactive

Qu. Which outcome was entered for the molecule "CCCCCCCCCCCCOCCCCCCCCC/C=C/c1ccc2c(c1)OCCOCCOCCOCCO2" in this test?
Ans. f

Qu. Please give the result for "CCOC(=O)/C(C(=O)Nc1ccc(Cl)cc1)=C(/N)N1CCOCC1" too.
Ans. f

Qu. Entry to check: CCCCCCCCCCOC1C(C(C)OCCCN(C)C)OC2OC3(CCCCC3)OC21 (configuration not stated)
Ans. f

Qu. And CN1CCN(c2cc3c(cc2F)c(=O)c(C(=O)O)cn3C2CC2)CC1CC#N (configuration not stated) ?
Ans. f

Qu. Entry C=CCC1[C@@H](C(C)(C)C(C(C)=O)C(=O)C(=O)OC)OC(C(C)(C)C)N1C(=O)OC (some centres not stated) please
Ans. f

Qu. One more molecule: "Nn1c(Sc2nc3ccccc3c(=O)n2N)nc2ccccc2c1=O"
Ans. f

Qu. Note, next up: C#CCOCC12C=CC(O1)C1C(=O)N(C)C(=O)C12 (configuration not stated)
Ans. f

Qu. Further, for COc1ccc(-c2c3c(n(C4OC(CO)C(O)C(O)C4O)c(=S)c2C#N)CCCC3)cc1 (configuration not stated) ?
Ans. f

Qu. Now give it for "COc1cc(Nc2cc(Cl)cc(Cl)c2)nc(N)n1" too.
Ans. f

Qu. // query: O=C1c2ccccc2CC1C1(O)C(=O)Nc2c(Cl)cc(Cl)cc21 (configuration not stated)
Ans. f

Qu. Similarly, "C[P+]1(c2ccccc2)CCCCC1" ?
Ans. f

Qu. Entry CCN1C[C@]2(C)CC[C@H](OC)C34C5C[C@@H]6[C@@H](OC)C[C@@](OC)(C5[C@H]6OCc5ccccc5)C(C13)[C@H](OC(C)=O)[C@@H]42 (some centres not stated) please
Ans. f

Qu. Then Cc1ccc(C2(c3ccc(Cl)cc3)c3ccccc3C3=NCCN32)cc1 (configuration not stated) ?
Ans. f

Qu. Can you handle "C=C(C(=C)P(=S)(c1ccccc1)c1ccccc1)P(=S)(c1ccccc1)c1ccccc1" next?
Ans. f

Qu. Now the molecule "Cc1[nH]n(-c2nc(-c3ccccc3)cc(=O)[nH]2)c(=O)c1CCO"
Ans. f

Qu. Same for "COc1ccc(O)c(/C=N/CCC/N=C/c2cc(OC)ccc2O)c1"
Ans. f

Qu. Now the same for CC1SC(=O)SC1C (configuration not stated)
Ans. f

Qu. Again, but for "CC(=O)NC1=CC(=O)C=C(Cl)C1=O"
Ans. f

Qu. // next record COc1ccc(/C=C2\CCC(CCN3CCOCC3)C2=O)cc1 (configuration not stated)
Ans. f

Qu. Do the same for "COc1ccc(OC)c(NCC#N)c1" please
Ans. f

Qu. Here is the next molecule: COc1cc(C2C3=C(COC3=O)Oc3cc4c(cc32)OCO4)ccc1O (configuration not stated)
Ans. t

Qu. Entry O=C1CC2OCC=C3CN4CCC5(C(=O)O)C(N1)C2C3CC45 (configuration not stated) please
Ans. f

====

What GI50 was measured for each of the following?
# System: PC-3
# ASSAY EXPLANATION: NCI tumour cell line growth inhibition, 48 h
Activity calls are given as the source filed them. Cut-off read from the data, not from the text of the source: active = GI50 up to about 1.1 µM and inactive = higher.

Qu. Value lookup for GI50; key = Cc1cc(Cl)ccc1NC(=O)/C(CC(=O)CC(c1ccccc1)c1c(O)c2ccccc2oc1=O)=N\O (centres undefined)
Ans. > 100 µM (inactive)

Qu. Can you handle "O=C1NC2(CCNCC2)Oc2ccccc21" next?
Ans. > 100 µM (inactive)

Qu. Would you mind doing "COc1ccc2nc3cccc([N+](=O)[O-])c3c(NCCO)c2c1" as well?
Ans. 0.0232 µM (active)

Qu. Could you do the same for "Cc1ccc(CCCCCOc2ccc(C3=NCCO3)cc2)s1" , please?
Ans. > 100 µM (inactive)

Qu. Same read-out for "Cc1[nH]n(-c2nc(-c3ccccc3)cc(=O)[nH]2)c(=O)c1CCO" ?
Ans. > 100 µM (inactive)

Qu. Another compound to check: "CC(C)(C)c1ccc(O)c(CN(Cc2cc(C(C)(C)C)ccc2O)c2ccccc2)c1"
Ans. 17.9 µM (inactive)

Qu. Another compound to check: "COP(=O)(Cc1ccccc1)Cc1ccccc1"
Ans. > 100 µM (inactive)

Qu. Now give it for "O=C(O)c1cscc1Cc1cccs1" too.
Ans. > 100 µM (inactive)

Qu. Can you handle CC1CC2=C(C1)C(C1(C)C(=O)CC3C(C1=O)C3(C)C)C(C)C2=O (centres undefined) next?
Ans. > 100 µM (inactive)

Qu. And for "CCCCCCCCCCCCOCCCCCCCCC/C=C/c1ccc2c(c1)OCCOCCOCCOCCO2" ?
Ans. 17.9 µM (inactive)

Qu. Would you mind doing CS(=O)(=O)CCC(N)P(=O)(O)O (centres undefined) as well?
Ans. > 100 µM (inactive)

Qu. Then this compound: "Cc1ccc(Cc2n[nH]c(=O)[nH]2)cc1"
Ans. > 100 µM (inactive)

Qu. // query: O=C1/C(=C/c2n[nH]cc2-c2ccc(Cl)cc2)C(=O)N(c2ccccc2)C1c1ccccc1 (centres undefined)
Ans. 6.92 µM (inactive)

Qu. Another: CC(Cc1ccc(Cl)cc1Cl)NO (centres undefined)
Ans. > 100 µM (inactive)

Qu. // next record "CCOP(=O)(OCC)/C(C#N)=C/c1cccn1C"
Ans. > 100 µM (inactive)

Qu. Another compound: "CC1=C(Br)C(=O)c2c(O)ccc(O)c2C1=O"
Ans. 1.41 µM (inactive)

Qu. Let us now turn to "Fc1ccc(Nc2nc(Cl)c3nc[nH]c3n2)cc1Cl"
Ans. > 100 µM (inactive)

Qu. Next up: "COC(=O)[C@H](C)NC(=O)C1(CNC(=O)[C@H](C)NC(=O)OC(C)(C)C)Cc2ccccc2-c2ccccc2C1"
Ans. 23.8 µM (inactive)

Qu. Then this compound: Cc1cc(C)c(N[S+]([O-])c2cccc(C(F)(F)F)c2)c(C)c1 (centres undefined)
Ans. > 100 µM (inactive)

Qu. Lookup O=C(O)c1c(CC(Cc2ccc3c(c2)CCC3)C(=O)O)ccc2c1CCC2 (centres undefined)
Ans. > 100 µM (inactive)

Qu. Similarly, CC1SC(=O)SC1C (centres undefined) ?
Ans. > 100 µM (inactive)

Qu. Here is the next compound: "O=c1oc2ccc(Cl)cc2cc1-c1cn2cc(Cl)ccc2n1"
Ans. > 100 µM (inactive)

Qu. And the next one, Cc1ccc(C)c(C2NC(=O)c3ccccc3N2)c1 (centres undefined) ?
Ans. 1.06 µM (active)

Qu. Cool, now O=C(O)C1NCCc2c1[nH]c1ccccc21 (centres undefined)
Ans. > 10 µM (inactive)

The values you see were collected from ChEMBL document CHEMBL1201862.
